Test system: MDA-MB-231 breast
assayRemarks: NCI-60 one-dose screen, 48 h
assaySetup: 10 µM unless noted
This is part of a sample that, as a whole, favours compounds with a hit. Of some 83,000 tested, about 20% had one in any assay. Calls of active or inactive are those of the source. How the source made its calls: active means growth percent below 10; inactive means the rest.
Outcomes: 1 (active), -1 (inactive)

molecule: Fc1cc2[nH]ncc2c2c3c(c(-c4cn[nH]c4)nc12)CCCC3
systemName: MDA-MB-231 breast
answerLabel: 1
//
molecule: C=C(C)[C@@H]1CC[C@]2(C)[C@H](CC=C3[C@@H]4[C@@H](C)[C@H](C)CC[C@]4(C(N)=O)CC[C@]32C)[C@@]1(C)CCC#N
systemName: MDA-MB-231 breast
answerLabel: 1
//
molecule: C=C(C)[C@@H]1CC[C@]2(C)[C@H](CC[C@@H]3[C@@H]([C@@](C)(O)CCC=C(C)C)CC[C@]32C)[C@@]1(C)CCC(=O)N1CCN(C)CC1
systemName: MDA-MB-231 breast
answerLabel: 1
//
molecule: COc1cc(/C=C/C(=O)/C=C/c2ccc(-n3ccnc3C)cc2)ccc1O
systemName: MDA-MB-231 breast
answerLabel: -1
//
molecule: Cc1ccc(-c2cc(-c3ccc(C)cc3)nc(NCCNc3ccnc4cc(Cl)ccc34)n2)cc1
systemName: MDA-MB-231 breast
answerLabel: 1
//
molecule: C#C[C@]1(O)CC[C@H]2[C@@H]3CC=C4c5nc(Nc6ccccn6)sc5CC[C@]4(C)[C@H]3CC[C@@]21C
systemName: MDA-MB-231 breast
answerLabel: 1
//
molecule: COc1ccc(CC(C#N)c2ccc(Cl)cc2)cc1 (centres undefined)
systemName: MDA-MB-231 breast
answerLabel: -1
//
molecule: COc1cc2c(c(Br)c1N)-c1cc(Br)c(N)cc1C2=O
systemName: MDA-MB-231 breast
answerLabel: -1
//
molecule: CCN1c2ccccc2C(Cl)(c2ccc(N(C)C)cc2)c2ccccc21
systemName: MDA-MB-231 breast
answerLabel: -1
//
molecule: Cc1cccc(C[C@H](NC(=O)Nc2ccc(C)cc2F)C(=O)N[C@@H]2C(=O)N3C[C@H](O)C[C@H]3C(=O)N3CCN(C)C[C@H]3C(=O)N[C@@H](C)C(=O)N3C[C@H](C)C[C@H]3C(=O)O[C@H]2C)c1
systemName: MDA-MB-231 breast
answerLabel: -1
//
molecule: Cc1cc(C)c(O)c(CNCCCCCCNCc2cc(C)cc(C)c2O)c1
systemName: MDA-MB-231 breast
answerLabel: 1
//
molecule: CCOC(=O)C(c1ccccc1)N1C(=O)c2ccccc2C1=O (centres undefined)
systemName: MDA-MB-231 breast
answerLabel: -1
//
molecule: CN(C)CCCNc1nc(-c2cccc(C(Cl)(Cl)Cl)c2)nc(C(Cl)(Cl)Cl)n1
systemName: MDA-MB-231 breast
answerLabel: -1
//
molecule: O=c1[nH]c2cc(Cl)c(Cl)cc2n2cc3ncccc3c12
systemName: MDA-MB-231 breast
answerLabel: -1
//
molecule: O=S(=O)(NCCCNc1nccc(-c2c(-c3cccc(F)c3)nc3occn23)n1)c1cccc2ccccc12
systemName: MDA-MB-231 breast
answerLabel: 1
//
molecule: CC(C)c1ccc(C(=O)Nc2nc3ccc(O)cc3s2)cc1
systemName: MDA-MB-231 breast
answerLabel: -1
//
molecule: COc1c(C(C)=O)c(OCCCCOc2c(C(C)=O)c(OC)c3ccoc3c2OC)c(OC)c2occc12
systemName: MDA-MB-231 breast
answerLabel: -1
//
molecule: O=C1/C(=C\c2cn(CC(O)CN3CCCCC3)c3ccccc23)c2ccccc2N1c1c(Cl)cccc1Cl (centres undefined)
systemName: MDA-MB-231 breast
answerLabel: 1
//
molecule: COc1ccc(C(C(=O)O)c2ccc(OC)cc2)cc1
systemName: MDA-MB-231 breast
answerLabel: -1
